# measurement notes: Pharmacokinetics and tissue distribution in BALB/c mice
# Assay type: in vivo
# condition description: female, mouse, lungs, iv, 5 mg/kg
test readout: half-life

O=C1C(NCc2ccc(F)cc2)=CC2=NCCc3c[nH]c1c32 :: 30.1 min

====

# measurement notes: Pharmacokinetics and tissue distribution in BALB/c mice
# Format: in vivo
# condition description: female, mouse, heart, iv, 5 mg/kg, read-out: Cl (converted)
test readout: clearance (mL/min/kg)

O=C1C(NCc2ccc(F)cc2)=CC2=NCCc3c[nH]c1c32 :: 41.2

====

# measurement notes: Pharmacokinetics and tissue distribution in BALB/c mice
# Type: in vivo
# condition description: female, mouse, brain, iv, 5 mg/kg
test readout: half-life (min)

O=C1C(NCc2ccc(F)cc2)=CC2=NCCc3c[nH]c1c32 [FBA-TPQ] :: 15.1

====

# measurement notes: Pharmacokinetics and tissue distribution in BALB/c mice
# Format: in vivo
# condition description: female, mouse, plasma, iv, 5 mg/kg
test readout: half-life (min)

O=C1C(NCc2ccc(F)cc2)=CC2=NCCc3c[nH]c1c32 [FBA-TPQ] :: 14.9

====

# measurement notes: Pharmacokinetics and tissue distribution in BALB/c mice
# Type: in vivo
# condition description: female, mouse, spleen, ip, 10 mg/kg
test readout: half-life

O=C1C(NCc2ccc(F)cc2)=CC2=NCCc3c[nH]c1c32 :: 1.73 h

====

# measurement notes: Plasma protein binding by micro-ultrafiltration
# Assay type: in vitro ADME
# condition description: pooled mouse plasma, 5.0 μM, 37 °C 1 h, read-out: bound to plasma proteins (converted)
test readout: fraction unbound at 1 h, 5 µM

O=C1C(NCc2ccc(F)cc2)=CC2=NCCc3c[nH]c1c32 :: 0.222

====

# measurement notes: Plasma protein binding by micro-ultrafiltration
# Type: in vitro ADME
# condition description: pooled mouse plasma, 0.5 μM, 37 °C 1 h, read-out: bound to plasma proteins (converted)
test readout: fraction unbound at 1 h, 0.5 µM

O=C1C(NCc2ccc(F)cc2)=CC2=NCCc3c[nH]c1c32 [FBA-TPQ] :: 0.277

====

# measurement notes: Pharmacokinetics and tissue distribution in BALB/c mice
# Format: in vivo
# condition description: female, mouse, brain, iv, 5 mg/kg, read-out: Vss
test readout: Vd (L/kg)

O=C1C(NCc2ccc(F)cc2)=CC2=NCCc3c[nH]c1c32 [FBA-TPQ] :: 18.7

====

# measurement notes: Pharmacokinetics and tissue distribution in BALB/c mice
# Format: in vivo
# condition description: female, mouse, liver, iv, 5 mg/kg, read-out: Vss
test readout: Vd

O=C1C(NCc2ccc(F)cc2)=CC2=NCCc3c[nH]c1c32 :: 3.34 L/kg

====

# measurement notes: Pharmacokinetics and tissue distribution in BALB/c mice
# Type: in vivo
# condition description: female, mouse, heart, iv, 5 mg/kg, read-out: Vss
test readout: Vd

O=C1C(NCc2ccc(F)cc2)=CC2=NCCc3c[nH]c1c32 :: 1.77 L/kg

====

# measurement notes: Pharmacokinetics and tissue distribution in BALB/c mice
# Assay type: in vivo
# condition description: female, mouse, kidneys, iv, 5 mg/kg
test readout: AUC (ng·h/mL)

O=C1C(NCc2ccc(F)cc2)=CC2=NCCc3c[nH]c1c32 [FBA-TPQ] :: 11500
